Test system: RARb:RXRa (NR concentration 270 nM, RXRa partner concentration 90 nM)
Assay: PBM binding z-score (relative to random genomic background probes); higher = stronger binding; sequences stand for … in GC…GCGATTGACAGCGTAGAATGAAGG
measured-endpoint: PBM binding z-score
Please reply with the value in numeric form only.

// PBM binding z-score value for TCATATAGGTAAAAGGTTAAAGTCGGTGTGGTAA : 2.64

Documented PBM binding z-score of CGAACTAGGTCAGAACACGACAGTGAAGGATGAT : 2.84

Documented PBM binding z-score of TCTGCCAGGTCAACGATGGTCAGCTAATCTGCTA : 4.02

Entry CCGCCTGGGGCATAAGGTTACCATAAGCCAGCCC , PBM binding z-score reported as 1.68

For record ATCTCTAGGTAGCCAAGTTCAGTGAATGCCGAAC the listed PBM binding z-score is 0.669

response.value for CAAACTAGGTCACCGGAAGGTTAAAGTCCGCATG (field: PBM binding z-score) = 4.78

The recorded PBM binding z-score for CCTCGGAGGACAACAGGAGCTCAGAGCTGCCAGA is 0.83

For record TTACCAAGGTGAAGGTCGTTAATCCCTCTGTAGA the listed PBM binding z-score is 1.98

Short answer for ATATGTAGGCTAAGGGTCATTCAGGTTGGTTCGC : PBM binding z-score was 3.36

PBM binding z-score for TCTGCTAGGTCAGATGGTCAGCTAACGAGCTGCC is 3.32

Note to self: PBM binding z-score recorded for AGACAAAGTTCATCTAGGTAACGTAAGATATGCT was 4.98

Field PBM binding z-score (entry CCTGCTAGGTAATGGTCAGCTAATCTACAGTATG ) reads 0.113

PBM binding z-score recorded for this sequence, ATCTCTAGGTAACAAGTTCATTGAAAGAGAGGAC , is 1.89

PBM binding z-score recorded for this sequence, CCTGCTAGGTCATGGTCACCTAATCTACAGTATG , is 3.98

// PBM binding z-score lookup, sequence = CCTCGTTGGTCAGGAGGTCACACACCGGATATGA , result: 3.75

Measured PBM binding z-score of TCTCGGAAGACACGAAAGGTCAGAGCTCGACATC : 3.73

PBM binding z-score reported for this sequence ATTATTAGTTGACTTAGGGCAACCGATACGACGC : 1.12

Entry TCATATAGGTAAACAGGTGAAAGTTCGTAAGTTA — recorded PBM binding z-score = 1.25

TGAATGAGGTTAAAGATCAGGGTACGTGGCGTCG has a reported PBM binding z-score of 2.21

Briefly, PBM binding z-score measured for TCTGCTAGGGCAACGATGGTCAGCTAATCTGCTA : 1.58

So, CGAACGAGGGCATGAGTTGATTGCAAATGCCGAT ? Its PBM binding z-score was 1.96

response.value for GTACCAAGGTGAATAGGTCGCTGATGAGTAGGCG (field: PBM binding z-score) = 2.07

Given item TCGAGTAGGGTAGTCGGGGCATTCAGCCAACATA , the value recorded as its PBM binding z-score is 0.0213

PBM binding z-score recorded for this sequence, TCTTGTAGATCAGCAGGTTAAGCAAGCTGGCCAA , is 0.0308

The reported value for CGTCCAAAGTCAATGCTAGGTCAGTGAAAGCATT in terms of PBM binding z-score is 1.68

Per the records, this sequence ( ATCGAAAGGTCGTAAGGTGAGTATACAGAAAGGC ) has PBM binding z-score equal to 3.72

// field: PBM binding z-score; key: CAAACTATGTCACCGGAAGGTCAAAGTCCGCATG ; value = 3.7

Form field PBM binding z-score, entry CCTACTGGGCCATCAGGTCATTTATATCAACGTT : 1.75

For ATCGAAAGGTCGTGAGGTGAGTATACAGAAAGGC the sequence record lists PBM binding z-score as 4.02

For record TCTAGTTGGTCACTGAGGTCACACACGACGGGTA the listed PBM binding z-score is 4

Field PBM binding z-score (entry CATAGAGGGTCAGCTAGGCCAGAGTAGGGACGGC ) reads 3.82

PBM binding z-score for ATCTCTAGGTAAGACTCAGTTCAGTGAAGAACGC is 0.386

PBM binding z-score reading for CTACCAAGGTGAAGAAGGTCGTTGATTACTATTC : 1.74

In plain terms, CCTACTGGGCCATCCGGTCATTGATATCAACGTT has a documented PBM binding z-score of 1.42

Documented PBM binding z-score of CGAACTAGGTCAAAACAGGACAGTGAAGGATGAT : 3.33

Lab note: measured PBM binding z-score of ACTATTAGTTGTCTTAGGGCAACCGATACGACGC was 0.618

The measured PBM binding z-score associated with CCGATTAGGTTATGGGGCATTCAGGCAACGGTGA reads 1.37

Measured PBM binding z-score, ATCTCTAGGTAACGTTCAGTGAAAGATCGATAGA : 0.556

Short answer for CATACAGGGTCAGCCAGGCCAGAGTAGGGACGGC : PBM binding z-score was 4.1

Sure, the documented PBM binding z-score for TCATATAGGTAAATGCTAGGTGAAAGTTCGATCT is 0.871

Per the record, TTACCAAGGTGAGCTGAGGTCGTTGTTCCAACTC has PBM binding z-score of 1.79

Please fill in: PBM binding z-score reported for GGAACGAGGGCAAGTTGATAACAGAGTTTGATGG = 2.38

# PBM binding z-score of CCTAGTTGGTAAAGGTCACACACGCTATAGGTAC = 5.22

The recorded PBM binding z-score for entry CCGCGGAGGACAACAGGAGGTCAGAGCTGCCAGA equals 3.04

Measured PBM binding z-score of CGTCCAAGTTCAACTAAGGTAACGTAAAGCACGC : 3.63

The recorded PBM binding z-score for entry GCTATTAGTTGAATGGGCAACCGAATGATTCTCG equals -0.226

Consider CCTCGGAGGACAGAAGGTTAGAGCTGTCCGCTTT . Its measured PBM binding z-score is 1.12

Record summary for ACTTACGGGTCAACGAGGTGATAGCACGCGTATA : reported PBM binding z-score = 4.04

sequence TCTTGTAGATCAATAGAGGTTAAGACAGTGCGCT , PBM binding z-score observed: 0.993

PBM binding z-score for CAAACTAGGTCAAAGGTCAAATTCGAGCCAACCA is 5.62

The recorded PBM binding z-score for entry CATCGGAGGACAACAGGAGGTCAGAGCTGCCAGA equals 3.08
